METHOD: Cytotoxicity against human L02 cells assessed as reduction in cell viability after 24 hrs by MTT assay
Format: cell-based
RECORDED_CONDITIONS: L02 cells
PARAMETER_MEASURED: CC50 at 24 h

Worked examples, 3 compounds total:
Cc1cccc(-n2cc(-c3ccc(NS(=O)(=O)c4c[nH]c(=O)[nH]c4=O)cc3)nn2)c1
39 µM
O=c1[nH]cc(S(=O)(=O)Nc2ccccc2-c2cn(-c3ccc(Cl)cc3)nn2)c(=O)[nH]1
16.8 µM
O=c1[nH]cc(S(=O)(=O)Nc2cccc(-c3cn(-c4cccc(Cl)c4)nn3)c2)c(=O)[nH]1
8.33 µM

Proceeding to the next compound to report its CC50 at 24 h.
Reported CC50 at 24 h, compound `Cc1ccc(-n2cc(-c3cccc(NS(=O)(=O)c4c[nH]c(=O)[nH]c4=O)c3)nn2)cc1` : ____ 23.1 µM
